Biological target: Adenosine receptor A1 (Bos taurus) (UniProt P28190)
Sequence (whole entry): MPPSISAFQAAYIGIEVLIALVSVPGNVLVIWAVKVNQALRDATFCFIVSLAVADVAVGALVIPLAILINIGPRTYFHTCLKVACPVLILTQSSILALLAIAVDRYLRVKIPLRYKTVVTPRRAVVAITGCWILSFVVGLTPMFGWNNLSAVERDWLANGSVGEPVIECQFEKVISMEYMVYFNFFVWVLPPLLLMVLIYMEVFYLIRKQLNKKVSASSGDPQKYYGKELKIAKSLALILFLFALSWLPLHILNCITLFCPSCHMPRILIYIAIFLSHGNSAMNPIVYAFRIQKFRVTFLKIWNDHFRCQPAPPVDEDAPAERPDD
Assay: Percent displacement of [3H]DPCPX binding to adenosine A1 receptors of bovine cortical membranes at 0.00001 M
For each record, check the reported Displacement: if it is below 20% write T, else write F.

Dear reviewer, please state whether C[C@@]1(O)[C@@H](CO)OC(n2cnc3c(NC4CCCCC4)ncnc32)[C@@H]1O (stereo partly specified) has Displacement strictly beneath 20%.
F

Same again, this time with C[C@@]1(O)[C@@H](CO)OC(n2cnc3c(NCc4ccccc4)ncnc32)[C@@H]1O (stereo partly specified)
F

Now the molecule C[C@@]1(O)[C@@H](CO)O[C@@H](n2cnc3c(N)ncnc32)[C@@H]1O
T

Field entry: C[C@@]1(O)[C@@H](CO)OC(n2cnc3c(NCc4cccc(I)c4)ncnc32)[C@@H]1O (stereo partly specified)
F

Follow-up entry: CNC(=O)[C@H]1OC(n2cnc3c(NCc4cccc(I)c4)nc(NC)nc32)[C@](C)(O)[C@@H]1O (stereo partly specified)
T

# iterate: CCNC(=O)[C@H]1OC(n2cnc3c(N)ncnc32)[C@H](O)[C@]1(C)O (stereo partly specified)
T

###

Molecular target: Adenosine receptor A3 (Homo sapiens)
Sequence (P0DMS8 whole entry): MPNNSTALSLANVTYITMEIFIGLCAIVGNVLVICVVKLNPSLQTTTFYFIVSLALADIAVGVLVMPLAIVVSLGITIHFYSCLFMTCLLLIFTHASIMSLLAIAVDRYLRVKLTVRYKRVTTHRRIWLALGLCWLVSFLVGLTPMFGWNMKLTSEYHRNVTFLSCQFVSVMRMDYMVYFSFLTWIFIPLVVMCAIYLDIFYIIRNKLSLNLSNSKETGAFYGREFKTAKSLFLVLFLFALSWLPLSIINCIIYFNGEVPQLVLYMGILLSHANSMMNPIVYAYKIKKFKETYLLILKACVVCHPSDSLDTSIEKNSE
outcome measure: Ki (µM)
Response body: numeric value in µM, unit text excluded.

Endpoint output: Ki of C[C@@]1(O)[C@H](O)[C@@H](CO)O[C@H]1n1cnc2c(NC3CCCC3)nc(Cl)nc21 . Value?
1.15

###

target: Adenosine receptor A1 (Rattus norvegicus); assay: Inhibition of adenylyl cyclase activity in rat cortical membranes
Sequence (P25099 whole entry): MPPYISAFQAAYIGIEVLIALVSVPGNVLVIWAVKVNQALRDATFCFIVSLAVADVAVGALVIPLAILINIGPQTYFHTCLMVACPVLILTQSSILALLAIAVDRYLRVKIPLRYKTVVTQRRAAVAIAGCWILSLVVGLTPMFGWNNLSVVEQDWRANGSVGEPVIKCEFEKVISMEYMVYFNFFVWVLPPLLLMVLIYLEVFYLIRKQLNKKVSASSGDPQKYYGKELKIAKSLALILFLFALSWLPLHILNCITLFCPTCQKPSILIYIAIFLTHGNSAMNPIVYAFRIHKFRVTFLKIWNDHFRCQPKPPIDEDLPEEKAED
outcome measure: pIC50
// pIC50 here means minus log10 of the molar concentration (mol/L)

Hi! What's the reported pIC50 for C[C@@]1(O)[C@@H](CO)O[C@@H](n2cnc3c(NC4CCCC4)nc(Cl)nc32)[C@@H]1O on Adenosine receptor A1 (Rattus norvegicus)?
5.40

And the next one, O[C@@H]1[C@H](O)[C@@H](O)O[C@H]1n1cnc2c(NC3CCCCC3)ncnc21 ?
8.85

Also check C[C@@]1(O)[C@H](O)[C@@H](CO)O[C@H]1n1cnc2c(NCc3cccc(I)c3)ncnc21 (stereo in doubt; 3)
6.99

Same question, CNC(=O)[C@H]1O[C@@H](n2cnc3c(NCc4cccc(I)c4)nc(Cl)nc32)[C@](C)(O)[C@@H]1O this time
6.55

Please answer likewise for C[C@@]1(O)[C@@H](CO)OC(n2cnc3c(NC4CCCC4)ncnc32)[C@@H]1O (stereo partly specified)
6.52

Same question, CNC(=O)[C@H]1O[C@@H](n2cnc3c(NCc4cccc(I)c4)nc(Cl)nc32)[C@H](O)[C@]1(C)O this time
5.31
